Test system: UO-31 renal
protocol: NCI tumour cell line growth inhibition, 48 h
Please respond with reported TGI for every item in the list.

Input: I am curious: what TGI value has been reported for COc1cc2cc(C(=O)Nc3cc(N)c4ccccc4c3CCCl)[nH]c2c(OC)c1OC ?
Output: 41.2 µM

Input: I am curious: what TGI value has been reported for COC1CC(OC2CCC3(C)C(CCC45CCC(C6=CC(=O)OC6)C(C)(CCC43)C5=O)C2)OC(C)C1O (stereo not given) ?
Output: 35.8 µM

Input: I am curious: what TGI value has been reported for O=c1c2cc([N+](=O)[O-])ccc2n2n1Cc1ccccc1C2 ?
Output: > 100 µM

Input: I am curious: what TGI value has been reported for O=[N+]([O-])c1ccc(Nc2nc3ccccc3s2)cc1 ?
Output: 66.5 µM

Input: I am curious: what TGI value has been reported for CC1(C)CCCCCCC2OC2CCCCCC(C)(C)C1=O (stereo not given) ?
Output: 88.2 µM

Input: I am curious: what TGI value has been reported for CC(C)(C)[Si](C)(C)OCC1CCC(n2cnc3c(N)ncnc32)O1 (stereo not given) ?
Output: > 100 µM

Input: I am curious: what TGI value has been reported for O=c1oc2ccccc2c(O)c1C(c1ccc(/C=C/c2ccccc2)cc1)c1c(O)c2ccccc2oc1=O ?
Output: 41.1 µM

Input: I am curious: what TGI value has been reported for COc1ccc2c(c1)N=C1CSC(c3cccc(Br)c3)N1C2 (stereo not given) ?
Output: 30.7 µM

Input: I am curious: what TGI value has been reported for CCCCCCCCC/C=C1\CC(CO)(COC(=O)C2CCCCC2)OC1=O (stereo not given) ?
Output: 55.8 µM

Input: I am curious: what TGI value has been reported for CC1=NN(c2nc(N)nc(CSCc3nc(N)nc(N(C)C)n3)n2)C(C)(C)C1 ?
Output: > 100 µM

###

Test system: RXF 393 renal
protocol: NCI tumour cell line growth inhibition, 48 h
Please respond with reported TGI for every item in the list.

Input: I am curious: what TGI value has been reported for COc1cc2c(Oc3ccc4[nH]c(C)cc4c3F)ccnc2cc1OCC1(N)CC1 ?
Output: 4.22 µM

Input: I am curious: what TGI value has been reported for c1ccc(Nc2nnc(Cn3ccc4ccccc43)s2)cc1 ?
Output: > 100 µM

Input: I am curious: what TGI value has been reported for N#Cc1sc2c(c1OC(=O)c1cccs1)c(=O)n(-c1ccccc1)c(=S)n2-c1ccccc1 ?
Output: 31.9 µM

Input: I am curious: what TGI value has been reported for O=C(CC12CC3CC(CC(C3)C1)C2)NCCOCCOCCOCCNC(=O)c1cc2c(o1)C(=O)c1ccccc1C2=O ?
Output: 2.95 µM

Input: I am curious: what TGI value has been reported for COc1ccc(-c2c(CN3CCOCC3)sc3nc4ccccc4n23)cc1 ?
Output: > 47.5 µM

Input: I am curious: what TGI value has been reported for O=C(N/N=C/c1ccccc1Cl)c1ccccc1Nc1ccnc(C(F)(F)F)c1 ?
Output: 1.1 µM

Input: I am curious: what TGI value has been reported for CCc1nc(N)nc(C(=O)NCCNC(=O)c2nc(N)nc(CC)c2C)c1C ?
Output: > 100 µM

Input: I am curious: what TGI value has been reported for O=c1c2cccnc2cc(-c2ccccc2)n1CCO ?
Output: > 100 µM

Input: I am curious: what TGI value has been reported for NC(=S)N/N=C(\C(=O)Nc1cccc([N+](=O)[O-])c1)c1nc2ccc([N+](=O)[O-])cc2[nH]c1=O ?
Output: > 100 µM

Input: I am curious: what TGI value has been reported for CCN=c1cc2sc3cc(NCC)c(C)cc3nc-2cc1C ?
Output: 18 µM

Input: I am curious: what TGI value has been reported for Nc1cn(Cc2ccccc2)c2nc(/C=C3/C=CC=CC3=O)c(O)n12 ?
Output: > 100 µM

Input: I am curious: what TGI value has been reported for CSc1nc(NC(=O)O)c(N(C(C)=O)C(=O)O)c(=O)n1C ?
Output: > 100 µM

Input: I am curious: what TGI value has been reported for C=C[C@H]1CCC/C=C/[C@@H]2C[C@H](O)C[C@H]2[C@H](O)/C=C/C(=O)O1 ?
Output: < 0.0193 µM

Input: I am curious: what TGI value has been reported for Cc1ccc(-c2nc(N)nc3c2nnn3Cc2cccc(CO[C@H]3CCOC3)n2)o1 ?
Output: > 100 µM

Input: I am curious: what TGI value has been reported for CCOC(=O)NC(=O)c1cn(CCCOC(=O)CCCCCCCCCCC(=O)OCCCn2cc(C(=O)NC(=O)OCC)c(=O)n(C)c2=O)c(=O)n(C)c1=O ?
Output: > 100 µM

Input: I am curious: what TGI value has been reported for O=C1NC2CCC(C2)C1c1ccccc1 (stereo not given) ?
Output: > 100 µM

Input: I am curious: what TGI value has been reported for [N-]=[NH+]CC(=O)OC(COCc1ccccc1)COCc1ccccc1 ?
Output: > 100 µM

Input: I am curious: what TGI value has been reported for Cc1cc(I)cc(CN(C)CCN2CCCC2)c1O ?
Output: 63.6 µM

Input: I am curious: what TGI value has been reported for CC1(C)CC(n2cnc(-c3ccc(F)cc3)c2-c2ccnc(N)n2)CC(C)(C)N1 ?
Output: > 25 µM

Input: I am curious: what TGI value has been reported for COC1CC(OC2CCC3(C)C(CCC45CCC(C6=CC(=O)OC6)C(C)(CCC43)C5=O)C2)OC(C)C1O (stereo not given) ?
Output: 89.4 µM
